Data credit: the kinase profiling compilation of Christmann-Franck et al. (2016)

Test system: PRKACA or PRKACB (cow)
Assay: radiometric filter-binding kinase assay
Details: compound 10.0 µM; accession and sequence are those of the human protein
Recorded residual activity for the following molecules
Number only, in %; omit the unit.

Examples from the recorded data:
sample smiles	residual activity, %
O=C1c2ccccc2-c2n[nH]c3cccc1c23	82
CC(C)(C)n1nc(-c2ccc(Cl)cc2)c2c(N)ncnc21	74
COC(=O)[C@@]1(OC)C[C@@H]2O[C@]1(C)n1c3ccccc3c3c4c(c5c6ccccc6n2c5c31)C(=O)N(C)C4	102
CC[C@@H](CO)Nc1nc(NCc2ccccc2)c2ncn(C(C)C)c2n1	93
O=C1Nc2ccccc2/C1=C1\Nc2ccccc2\C1=N/O	80

Here's the next entry for you.
Q. I would be grateful if you could share the reported residual activity for CC(C)[C@H](CO)Nc1nc(Nc2cccc(Cl)c2)c2ncn(C(C)C)c2n1 .
A. 82

* * *

Recorded residual activity for the following molecules
Target: UniProt:O15530
Sequence (O15530 whole entry, looked up): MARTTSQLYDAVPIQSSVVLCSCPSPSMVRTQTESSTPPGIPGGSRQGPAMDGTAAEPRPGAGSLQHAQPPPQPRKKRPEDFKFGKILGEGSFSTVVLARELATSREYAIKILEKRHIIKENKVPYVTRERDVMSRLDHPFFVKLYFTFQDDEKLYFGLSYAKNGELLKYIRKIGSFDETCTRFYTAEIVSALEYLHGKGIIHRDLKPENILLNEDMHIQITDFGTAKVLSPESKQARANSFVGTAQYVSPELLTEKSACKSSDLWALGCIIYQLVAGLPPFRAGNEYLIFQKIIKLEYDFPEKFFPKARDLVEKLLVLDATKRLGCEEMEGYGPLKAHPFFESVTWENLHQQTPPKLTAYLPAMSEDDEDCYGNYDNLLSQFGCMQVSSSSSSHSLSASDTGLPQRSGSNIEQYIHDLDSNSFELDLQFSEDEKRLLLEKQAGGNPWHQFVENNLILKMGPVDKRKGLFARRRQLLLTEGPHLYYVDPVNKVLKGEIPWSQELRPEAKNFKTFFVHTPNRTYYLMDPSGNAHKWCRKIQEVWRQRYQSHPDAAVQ
Test: radiometric filter-binding kinase assay
Settings: compound 10.0 µM; ATP 100 µM
Number only, in %; omit the unit.

Q. I would be grateful if you could share the reported residual activity for O=C1Cc2c([nH]c3ccc([N+](=O)[O-])cc23)-c2ccccc2N1 .
A. 41

Q. Input COC(=O)[C@@]1(OC)C[C@@H]2O[C@]1(C)n1c3ccccc3c3c4c(c5c6ccccc6n2c5c31)C(=O)N(C)C4
A. 114

Q. Input CC(C)[C@H](CO)Nc1nc(Nc2cccc(Cl)c2)c2ncn(C(C)C)c2n1
A. 103

Q. Input O=C1c2ccccc2-c2n[nH]c3cccc1c23
A. 62

Q. Input Cc1ccc(-c2nn(C(C)(C)C)c3ncnc(N)c23)cc1
A. 97
